FYI, the data here is from the supplement of paper PMC7125110.

Kindly supply the reported self-cleavage kobs at 640 uM GlcN6P values for the records listed here.
B1: glmS ribozyme (parent)
chain: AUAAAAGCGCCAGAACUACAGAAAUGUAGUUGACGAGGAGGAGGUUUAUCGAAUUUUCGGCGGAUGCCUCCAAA

# Variants of: B1
# experimentalDetails: self-cleavage kobs at 640 uM GlcN6P; higher = faster cleavage; RNA array
# testParameters: with glucosamine-6-phosphate
Variants at the floor of the assay were thinned out.

Prompt line: Can you share its self-cleavage kobs at 640 uM GlcN6P? I mean this variant: U49C G62C
Response line: < 1e-05 s⁻¹

Prompt line: Can you share its self-cleavage kobs at 640 uM GlcN6P? I mean this variant: A6G A14U U31A U57G
Response line: < 1e-05 s⁻¹

Prompt line: Can you share its self-cleavage kobs at 640 uM GlcN6P? I mean this variant: C50A G51U U55C
Response line: < 1e-05 s⁻¹

Prompt line: Can you share its self-cleavage kobs at 640 uM GlcN6P? I mean this variant: A6U G7C G13U A36C
Response line: < 1e-05 s⁻¹

Prompt line: Can you share its self-cleavage kobs at 640 uM GlcN6P? I mean this variant: C8U A52G
Response line: < 1e-05 s⁻¹

Prompt line: Can you share its self-cleavage kobs at 640 uM GlcN6P? I mean this variant: C10U G59C
Response line: < 1e-05 s⁻¹

Prompt line: Can you share its self-cleavage kobs at 640 uM GlcN6P? I mean this variant: G13U C50A A64U U65G
Response line: < 1e-05 s⁻¹

Prompt line: Can you share its self-cleavage kobs at 640 uM GlcN6P? I mean this variant: C8A C50U G51C A53C U65A
Response line: < 1e-05 s⁻¹

Prompt line: Can you share its self-cleavage kobs at 640 uM GlcN6P? I mean this variant: G41A A64C
Response line: < 1e-05 s⁻¹

Prompt line: Can you share its self-cleavage kobs at 640 uM GlcN6P? I mean this variant: G13U G41U A52C
Response line: < 1e-05 s⁻¹

Prompt line: Can you share its self-cleavage kobs at 640 uM GlcN6P? I mean this variant: G40U U46C
Response line: 0.000365 s⁻¹

Prompt line: Can you share its self-cleavage kobs at 640 uM GlcN6P? I mean this variant: C70G C71G
Response line: 5.98e-05 s⁻¹

Prompt line: Can you share its self-cleavage kobs at 640 uM GlcN6P? I mean this variant: G41U U47G C50G
Response line: < 1e-05 s⁻¹

Prompt line: Can you share its self-cleavage kobs at 640 uM GlcN6P? I mean this variant: C50G C71G
Response line: 0.000149 s⁻¹

Prompt line: Can you share its self-cleavage kobs at 640 uM GlcN6P? I mean this variant: U31G G37U U69G
Response line: 6.98e-05 s⁻¹

Prompt line: Can you share its self-cleavage kobs at 640 uM GlcN6P? I mean this variant: U49C U57C G60A G63A
Response line: < 1e-05 s⁻¹

Prompt line: Can you share its self-cleavage kobs at 640 uM GlcN6P? I mean this variant: A12U U45G U56A
Response line: 0.00298 s⁻¹

Prompt line: Can you share its self-cleavage kobs at 640 uM GlcN6P? I mean this variant: A15G G43C
Response line: < 1e-05 s⁻¹

Prompt line: Can you share its self-cleavage kobs at 640 uM GlcN6P? I mean this variant: G7U C67A
Response line: < 1e-05 s⁻¹

Prompt line: Can you share its self-cleavage kobs at 640 uM GlcN6P? I mean this variant: U45A U65G
Response line: 0.000543 s⁻¹

Prompt line: Can you share its self-cleavage kobs at 640 uM GlcN6P? I mean this variant: C50G U54G
Response line: 4.18e-05 s⁻¹

Prompt line: Can you share its self-cleavage kobs at 640 uM GlcN6P? I mean this variant: A33C G40C A52G G63A
Response line: < 1e-05 s⁻¹

Prompt line: Can you share its self-cleavage kobs at 640 uM GlcN6P? I mean this variant: C10G G13A
Response line: < 1e-05 s⁻¹

Prompt line: Can you share its self-cleavage kobs at 640 uM GlcN6P? I mean this variant: A33U G40U A52U U57G
Response line: < 1e-05 s⁻¹

Prompt line: Can you share its self-cleavage kobs at 640 uM GlcN6P? I mean this variant: C10G A15G A39U G60C C68A
Response line: < 1e-05 s⁻¹

Prompt line: Can you share its self-cleavage kobs at 640 uM GlcN6P? I mean this variant: C8A A14G U57C
Response line: < 1e-05 s⁻¹

Prompt line: Can you share its self-cleavage kobs at 640 uM GlcN6P? I mean this variant: U30C G37U C58A C68G
Response line: 7.09e-05 s⁻¹

Prompt line: Can you share its self-cleavage kobs at 640 uM GlcN6P? I mean this variant: A15C A36U A39G
Response line: < 1e-05 s⁻¹

Prompt line: Can you share its self-cleavage kobs at 640 uM GlcN6P? I mean this variant: C34A A52U
Response line: < 1e-05 s⁻¹

Prompt line: Can you share its self-cleavage kobs at 640 uM GlcN6P? I mean this variant: A6C G7U
Response line: < 1e-05 s⁻¹
